assay: NCI Yeast Anticancer Drug Screen. Data for the wt1 strain (AID 149);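 note: 0% = growth of vehicle-treated wt1 cultures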; settings: S. cerevisiae wt1 strain (SPY 50644) growth inhibition; at 11.0 µM; hits give high values
About 79,000 compounds went through this panel and 15% of them were active in at least one assay; those are over-represented in the sample as a whole. Activity calls are given as the source filed them. Cut-off read from the data, not from the text of the source: active = growth inhibition above about 70%; inactive = the rest.

[
  {
    "compound": "CC1CC(C)CC(C)C(O)/C(C#N)=C/C=C/CC(C2CCCC2C(=O)O)OC(=O)CC(O)C(C)C1 (stereo not given)",
    "growth inhibition": "99% (active)"
  },
  {
    "compound": "CCC1(O)C(=O)OCc2c1cc1n(c2=O)Cc2cc3ccccc3nc2-1 (stereo not given)",
    "growth inhibition": "15% (inactive)"
  },
  {
    "compound": "CC(=O)O/C(=C1\\C[C@H]2[C@@H]3CC=C4C[C@@H](OC(C)=O)CC[C@]4(C)[C@H]3CC[C@]2(C)C1=O)C(F)(F)F",
    "growth inhibition": "2% (inactive)"
  },
  {
    "compound": "CCC(=O)OC1CCn2c1nc1c2C(=O)C(C)=C(N2CC2)C1=O (stereo not given)",
    "growth inhibition": "-11% (inactive)"
  },
  {
    "compound": "CC1=C[C@H]2O[C@@H]3C[C@H]4OC(=O)/C=C\\C=C\\C(C(C)O)OCC(O)C(C)CC(=O)OC[C@@]2(C[C@@H]1O)[C@]4(C)[C@@]31CO1 (stereo not given in full)",
    "growth inhibition": "93% (active)"
  },
  {
    "compound": "COc1cccc2c1C(=O)c1c(O)c3c(c(O)c1C2=O)C[C@@](O)(/C(C)=N\\O)C[C@@H]3OC1CC(N)C(O)C(C)O1 (stereo not given in full)",
    "growth inhibition": "8% (inactive)"
  },
  {
    "compound": "Cc1ccc2c(c1)C1(C)c3cc(C)ccc3SP1S2 (stereo not given)",
    "growth inhibition": "25% (inactive)"
  },
  {
    "compound": "CCNCC(=O)O[C@]1(CC)C(=O)OCc2c1cc1n(c2=O)Cc2cc3ccccc3nc2-1",
    "growth inhibition": "13% (inactive)"
  },
  {
    "compound": "CC1(C)N=C(N)N=C(N)N1c1cccc(N)c1.[Sn]",
    "growth inhibition": "17% (inactive)"
  },
  {
    "compound": "O=[N+]([O-])c1oc2ccc3ccccc3c2c1CCO",
    "growth inhibition": "75% (active)"
  }
]

###

assay: NCI Yeast Anticancer Drug Screen. Data for the bub3 strain (AID 167); details: S. cerevisiae bub3 mutant strain, at 1.2 µM, hits give high values
This is part of a sample that, as a whole, favours compounds with a hit. Of some 79,000 tested, about 15% had one in any assay.

[
  {
    "compound": "CCC1(O)C(=O)OCc2c1cc1n(c2=O)Cc2c-1nc1ccccc1c2OC (stereo unspecified)",
    "units-of-measure": "%",
    "growth inhibition": -10
  },
  {
    "compound": "C[N+](CCCl)(CCCl)Cc1cccc2cccc([N+](=O)[O-])c12",
    "units-of-measure": "%",
    "growth inhibition": -20
  },
  {
    "compound": "NNc1ccccc1Cl",
    "units-of-measure": "%",
    "growth inhibition": 38
  },
  {
    "compound": "CCN(CCCl)c1cc(CN(C)C)cc(NC(=O)c2ccc(C(=O)Nc3cc(CN(C)C)cc(N(CC)CCCl)c3)cc2)c1",
    "units-of-measure": "%",
    "growth inhibition": -30
  },
  {
    "compound": "O=c1oc2ccccc2c(O)c1C(c1ccc2c(c1)Cc1ccccc1-2)c1c(O)c2ccccc2oc1=O",
    "units-of-measure": "%",
    "growth inhibition": -7
  },
  {
    "compound": "O=S(=O)(O)/C(=C\\c1ccccc1)c1ccccc1 (tested in a mixture with another compound)",
    "units-of-measure": "%",
    "growth inhibition": -11
  },
  {
    "compound": "COC(=O)C1=C(C(=O)OC)C2OC1c1cc3ccccc3cc12",
    "units-of-measure": "%",
    "growth inhibition": 75
  },
  {
    "compound": "C/C(=N\\NC(N)=O)C(CN1CCOCC1)C(c1ccccc1)c1c(O)c2ccccc2oc1=O (stereo unspecified)",
    "units-of-measure": "%",
    "growth inhibition": 4
  },
  {
    "compound": "C[C@]12CCC3[C@@H](CC[C@@H]4c5nonc5CC[C@]34C)C1CCC2=O (stereo partly specified)",
    "units-of-measure": "%",
    "growth inhibition": 16
  },
  {
    "compound": "O=P(CCCCP(=O)(c1ccccc1)c1ccccc1)(c1ccccc1)c1ccccc1.[Cl][Sn]([Cl])([c]1ccccc1)[c]1ccccc1",
    "units-of-measure": "%",
    "growth inhibition": 7
  },
  {
    "compound": "Nc1ccc(Cl)cc1C(=O)c1ccccc1",
    "units-of-measure": "%",
    "growth inhibition": -35
  },
  {
    "compound": "O=C(O)c1ccccc1.[Ag]",
    "units-of-measure": "%",
    "growth inhibition": 93
  },
  {
    "compound": "O=C(COc1ccc(Cl)cc1Cl)NO",
    "units-of-measure": "%",
    "growth inhibition": -9
  },
  {
    "compound": "O=[N+]([O-])c1cc(S(=O)(=O)F)ccc1Cl",
    "units-of-measure": "%",
    "growth inhibition": -10
  },
  {
    "compound": "Cc1ccc(P(c2ccc(C)cc2)c2ccc(C)cc2)cc1",
    "units-of-measure": "%",
    "growth inhibition": 20
  },
  {
    "compound": "CCOC(=O)C1=C(C(=O)OCC)C2(c3ccccc3)N(O1)c1ccccc1C2(C)C (stereo unspecified)",
    "units-of-measure": "%",
    "growth inhibition": -6
  },
  {
    "compound": "O=C(/C=C(\\c1ccccc1)N1CC1)c1ccccc1",
    "units-of-measure": "%",
    "growth inhibition": -7
  },
  {
    "compound": "C[C@]12CC[C@H](O)CC1=CC[C@@H]1[C@@H]2CC[C@]2(C)C(=O)CC[C@@H]12",
    "units-of-measure": "%",
    "growth inhibition": -23
  },
  {
    "compound": "Oc1c(Br)cc(Br)cc1Br",
    "units-of-measure": "%",
    "growth inhibition": -5
  },
  {
    "compound": "Cc1c(N)nc([C@H](CC(N)=O)NC[C@H](N)C(N)=O)nc1C(=O)N[C@H](C(=O)N[C@H](C)[C@@H](O)[C@H](C)C(=O)N[C@H](C(=O)NCCc1nc(-c2nc(C(=O)NCCC[S+](C)C)cs2)cs1)[C@@H](C)O)C(OC1OC(CO)C(O)C(O)C1OC1OC(CO)C(O)C(OC(N)=O)C1O)c1cnc[nH]1 (stereo partly specified)",
    "units-of-measure": "%",
    "growth inhibition": -2
  },
  {
    "compound": "COc1cc([C@@H]2c3cc4c(cc3C[C@@H]3COC(=O)C32)OCO4)cc(OC)c1O (stereo partly specified)",
    "units-of-measure": "%",
    "growth inhibition": 3
  },
  {
    "compound": "Cc1nc2ccccc2cc1C[N+]12CN3CN(CN(C3)C1)C2",
    "units-of-measure": "%",
    "growth inhibition": 4
  },
  {
    "compound": "O=C(O)CCCOc1cc(Cl)c(Cl)cc1Cl",
    "units-of-measure": "%",
    "growth inhibition": -6
  },
  {
    "compound": "c1cc2c(cc1C1OC[C@H]3[C@@H](c4ccc5c(c4)OCO5)OC[C@@H]13)OCO2 (stereo partly specified)",
    "units-of-measure": "%",
    "growth inhibition": 14
  },
  {
    "compound": "CCOP(=O)(CC(C)P(=O)(OCC)OCC)OCC.C[CH2][Sn]([Cl])([Cl])[CH2]C (stereo unspecified)",
    "units-of-measure": "%",
    "growth inhibition": -2
  },
  {
    "compound": "N#CC(C#N)=Cc1ccc(C#N)cc1",
    "units-of-measure": "%",
    "growth inhibition": -4
  },
  {
    "compound": "CCN(CCCl)CCCCNc1c2ccccc2nc2ccc(OC)cc12",
    "units-of-measure": "%",
    "growth inhibition": -21
  },
  {
    "compound": "CN(CCc1ccc(Br)cc1)CCN1CCCCC1",
    "units-of-measure": "%",
    "growth inhibition": 20
  },
  {
    "compound": "CC1CC(Br)C(=O)O1 (stereo unspecified)",
    "units-of-measure": "%",
    "growth inhibition": 8
  },
  {
    "compound": "OCC(O)C(O)CO (stereo unspecified) (tested in a mixture with another compound)",
    "units-of-measure": "%",
    "growth inhibition": -1
  },
  {
    "compound": "OC1CCCC2CCC[N-]C12.OC1CCCC2CCC[N-]C12.[O]=[V][OH] (stereo unspecified)",
    "units-of-measure": "%",
    "growth inhibition": 10
  },
  {
    "compound": "Cc1ccc2c(c1N)C(=O)c1ccccc1C2=O",
    "units-of-measure": "%",
    "growth inhibition": 2
  },
  {
    "compound": "COc1ccc(/C=C(/C)[N+](=O)[O-])cc1",
    "units-of-measure": "%",
    "growth inhibition": -27
  },
  {
    "compound": "CCCN(CCC)c1c([N+](=O)[O-])cc(S(N)(=O)=O)cc1[N+](=O)[O-]",
    "units-of-measure": "%",
    "growth inhibition": -13
  },
  {
    "compound": "c1ccc(N=c2nc(N3CCOCC3)ss2)cc1",
    "units-of-measure": "%",
    "growth inhibition": -5
  },
  {
    "compound": "O=C(O)C1C2C=CC(C2)C1c1ccccc1 (stereo unspecified)",
    "units-of-measure": "%",
    "growth inhibition": 6
  },
  {
    "compound": "C/C(CCl)=N/NC1=NC(c2ccccc2Cl)P(=O)(NCCCNP2(=O)SC(N/N=C(/C)CCl)=NC2c2ccccc2Cl)S1 (stereo unspecified)",
    "units-of-measure": "%",
    "growth inhibition": 0
  },
  {
    "compound": "C[C@]12CCC(=O)C=C1CC[C@@H]1C2CC[C@@]2(C)C1CC[C@@H]2OC(=O)C12OC1CCC2=O (stereo partly specified)",
    "units-of-measure": "%",
    "growth inhibition": 1
  },
  {
    "compound": "O=c1oc2ccccc2c(O)c1C(c1ccc2ccccc2c1)c1c(O)c2ccccc2oc1=O",
    "units-of-measure": "%",
    "growth inhibition": 8
  },
  {
    "compound": "CNCC(O)c1ccc(O)c(O)c1.[Pt].c1ccc([PH+](c2ccccc2)c2ccccc2)cc1.c1ccc([PH+](c2ccccc2)c2ccccc2)cc1",
    "units-of-measure": "%",
    "growth inhibition": 0
  },
  {
    "compound": "CC1CN1C1=C(Cl)C(=O)C(N2CC2C)=C(Cl)C1=O (stereo unspecified)",
    "units-of-measure": "%",
    "growth inhibition": 18
  }
]
